- target under test: Chromobox protein homolog 1 (Homo sapiens) (UniProt P83916)
- Sequence (P83916 whole entry, looked up): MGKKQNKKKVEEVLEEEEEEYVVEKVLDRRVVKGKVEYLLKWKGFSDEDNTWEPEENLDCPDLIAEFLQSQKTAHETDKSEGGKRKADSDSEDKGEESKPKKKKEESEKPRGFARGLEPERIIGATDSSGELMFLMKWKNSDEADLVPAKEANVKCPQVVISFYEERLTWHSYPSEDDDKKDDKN
- protocol notes: HTS for Inhibitors of HP1-beta Chromodomain Interactions with Methylated Histone Tails; also: nearly all actives have a fitted effect of over 70% in size
- condition set: AlphaScreen HP1-beta / biotin-H3K9me3 peptide binding; series mostly up to 114 µM
The whole screen tested about 390,000 compounds, of which about 2,200 (0.56%) were called active. Inconclusive results (about 3%) are left out. Calls follow the shape of the dose curve; as a rule, active = well fitted inhibition curve with a large enough effect; inconclusive = small, poorly fitted or top-dose-only effect; inactive = no such curve, though single readings can be large or run the other way. The full list was thinned out, with actives kept by preference.
Result category, one only: 1.0 = active, 0.0 = inactive

Enquiry: What call does the record list for COc1ccc(NC(=S)NCC2CCN(c3ccc(OC)cc3)C2)cc1 (configuration not stated) ?
Return: 1.0

Enquiry: What call does the record list for O=C(Nc1cc2c3c(c1)C1CCCC1CN3CC1CCCC21)c1ccc([N+](=O)[O-])cc1 (configuration not stated) ?
Return: 1.0

Enquiry: What call does the record list for CCOCCCNC(=O)c1c(NC(=O)Cc2coc3c(C)c(C)ccc23)sc2c1CCC2 ?
Return: 0.0

Enquiry: What call does the record list for COc1ccc(Cl)cc1S(=O)(=O)N1CCC(c2ccncc2)CC1 ?
Return: 0.0

Enquiry: What call does the record list for COc1ccc(CNC(=O)CCc2c(C)nn(-c3ccc(N4CCCC4)nn3)c2C)cc1 ?
Return: 0.0

Enquiry: What call does the record list for Cc1ccc(Cl)cc1NC(=O)/C(C#N)=C\c1cn(Cc2ccc(F)cc2)c2ccccc12 ?
Return: 0.0

Enquiry: What call does the record list for COc1ccc(CNC(=O)C2CCC(CNc3c(N4CCOCC4)c(=O)c3=O)CC2)cc1 (configuration not stated) ?
Return: 0.0

====

- target under test: Chromobox protein homolog 1 (Homo sapiens)
- protocol notes: HTS for Inhibitors of HP1-beta Chromodomain Interactions with Methylated Histone Tails; also: nearly all actives have a fitted effect of over 70% in size
- condition set: AlphaScreen HP1-beta / biotin-H3K9me3 peptide binding; series mostly up to 114 µM
In all, about 390,000 compounds went through this assay and about 2,200 (0.56%) were called active. Not shown: some 3% with an inconclusive outcome. The sample holds actives, similar compounds and a random draw of the others, so the mix is not that of the screen.
assay metric: outcome

Cc1cc(NS(=O)(=O)c2ccc(NC(=O)c3ccccc3C)cc2)nc(C)n1 = inactive
Clc1cccc(-n2ncc3c(NCCc4ccccc4)ncnc32)c1 = inactive
CCc1ccccc1N1C(=O)CN(S(=O)(=O)CC)CC1(C)C(=O)NC1CCCCC1 (stereo not drawn) = inactive

====

- target under test: Chromobox protein homolog 1 (Homo sapiens) (UniProt P83916)
- protocol notes: HTS for Inhibitors of HP1-beta Chromodomain Interactions with Methylated Histone Tails; also: nearly all actives have a fitted effect of over 70% in size
- condition set: AlphaScreen HP1-beta / biotin-H3K9me3 peptide binding; series mostly up to 114 µM
In all, about 390,000 compounds went through this assay and about 2,200 (0.56%) were called active. Roughly 3% stayed inconclusive and do not appear here. Calls come from the whole dose curve; as a rule, active = well fitted inhibition curve with a large enough effect; inconclusive = small, poorly fitted or top-dose-only effect; inactive = no such curve, though single readings can be large or run the other way. This is one part of a sample in which actives are shown more often than they occur.
Result category, one only: class 1 (active), class 0 (inactive)

O=C(c1cccc(Br)c1)N1CCN(Cc2cc(=O)n3nc(-c4ccccc4)sc3n2)CC1 = class 0
COc1ccc(Cc2nnc(SCC(=O)c3cccc([N+](=O)[O-])c3)n2C)cc1 = class 0
COc1cccc(NC(=O)N2CCN(C(=O)c3nsc4ccccc34)CC2)c1 = class 0
Cc1ccc(OCC(=O)Oc2ccccc2[N+](=O)[O-])cc1 = class 0
CCOC(=O)c1cc(-c2ccc(OC)c(S(=O)(=O)Nc3ccc(OC)cc3OC)c2)on1 = class 0
COc1cccc(NCCC(=O)c2cccc([N+](=O)[O-])c2)c1 = class 1
Clc1ccccc1CSc1nnc(-c2ccco2)c(-c2ccco2)n1 = class 1
C=CCN(CC=C)CCOc1ccccc1[N+](=O)[O-] = class 1

Enquiry: What call does the record list for Clc1ccccc1CSc1nncn2c1cc1occc12 ?
Return: class 0

Enquiry: What call does the record list for O=C(CNS(=O)(=O)c1cccs1)N1CCN(c2ccccc2Cl)CC1 ?
Return: class 0

Enquiry: What call does the record list for CC(C)(C)c1ccc(/C=C/C(=O)NC2CCS(=O)(=O)C2)cc1 (configuration not stated) ?
Return: class 0

Enquiry: What call does the record list for COc1cccc(CNC(=O)c2ccc3c(c2)sc2nc(-c4cccc(OC)c4)cn23)c1 ?
Return: class 0

Enquiry: What call does the record list for COc1ccccc1CNC(=O)C(=O)NCC(c1cccs1)S(=O)(=O)c1cccs1 (configuration not stated) ?
Return: class 0

Enquiry: What call does the record list for CCOc1ccccc1N(C)C(=O)c1cc2c(s1)-c1ccccc1OC2 ?
Return: class 0

Enquiry: What call does the record list for Cc1c(Cl)cccc1NC(=O)C(=O)NCCc1csc2nc(-c3ccccc3F)nn12 ?
Return: class 0

Enquiry: What call does the record list for CCOc1ccc(N(Cc2ccccc2)C(=O)c2nc(SCC)ncc2Cl)cc1 ?
Return: class 0

Enquiry: What call does the record list for CCCCc1nn2c(=O)cc(COC(=O)c3ccccc3NC(=O)C(C)(C)C)nc2s1 ?
Return: class 0

Enquiry: What call does the record list for CC1(C)N=C(SCc2ccccc2Cl)c2ccccc2N1 ?
Return: class 0

Enquiry: What call does the record list for Cc1ccc2cccc(NC(=O)c3cccc4ccccc34)c2n1 ?
Return: class 0

Enquiry: What call does the record list for COc1cccc(-c2n[nH]c3c2C(c2cccc(O)c2)N(C)C3=O)c1 (configuration not stated) ?
Return: class 0

Enquiry: What call does the record list for CN(C)C(=O)CSc1n[nH]c(-c2ccco2)n1 ?
Return: class 0

Enquiry: What call does the record list for Fc1ccc(C(Nc2ccc(Cl)c(C(F)(F)F)c2)c2nnc(-c3ccccc3)o2)cc1 (configuration not stated) ?
Return: class 0

Enquiry: What call does the record list for CCCN1CCC(=O)N(C(CSc2ccc(C)cc2)Cc2ccccc2)CC1 (configuration not stated) ?
Return: class 0

Enquiry: What call does the record list for CCN1CCN(c2cc(C)c3cc(NC(=O)c4cc(Cl)ccc4OC)ccc3n2)CC1 ?
Return: class 0

Enquiry: What call does the record list for CC(C)(C)C1C/C(=C/c2ccco2)C(=O)/C(=C/c2ccco2)C1 (configuration not stated) ?
Return: class 1

Enquiry: What call does the record list for c1ccc(CSc2nnc(-c3ccco3)c(-c3ccco3)n2)cc1 ?
Return: class 1

Enquiry: What call does the record list for COc1cc(NC(=O)c2nn(-c3ccc(C)cc3)c(=O)c3c2c2ccccc2n3C)cc(OC)c1OC ?
Return: class 0

====

- target under test: Chromobox protein homolog 1 (Homo sapiens) (UniProt P83916)
- protocol notes: HTS for Inhibitors of HP1-beta Chromodomain Interactions with Methylated Histone Tails; also: nearly all actives have a fitted effect of over 70% in size
- condition set: AlphaScreen HP1-beta / biotin-H3K9me3 peptide binding; series mostly up to 114 µM
Screen size: about 390,000 compounds; about 2,200 (0.56%) were called active. Another 3% or so got no clear call; they are omitted. Calls come from the whole dose curve; as a rule, active = well fitted inhibition curve with a large enough effect; inconclusive = small, poorly fitted or top-dose-only effect; inactive = no such curve, though single readings can be large or run the other way. The sample holds actives, similar compounds and a random draw of the others, so the mix is not that of the screen.
Result category, one only: active, inactive

Solved entries:
Cc1ccccc1CNC(=O)c1cccc(NC(=O)c2nsc3ccccc23)c1 = inactive
FC(F)(F)c1cc(Nc2nc3ccccc3c3nncn23)ccc1Cl = inactive
CC(=O)Nc1ccc(S(=O)(=O)N2N=NC3C2C2CC4C3(CN(C(=O)OC(C)(C)C)S4(=O)=O)O2)cc1 (stereo unspecified) = inactive

Enquiry: What call does the record list for Cc1ccc(C(=O)NCCSc2c(C)[nH]c3ccccc23)cc1C ?
Return: inactive

Enquiry: What call does the record list for CCOc1ccccc1NC(=O)CSc1ncc(S(=O)(=O)c2ccc(C(C)(C)C)cc2)c(=O)[nH]1 ?
Return: inactive

Enquiry: What call does the record list for Cc1cc(C)cc(NS(=O)(=O)c2ccc3[nH]cc(C(=O)N4CCCCC4)c(=O)c3c2)c1 ?
Return: inactive

Enquiry: What call does the record list for COc1cccc(CNC(=O)C2CCC(CNS(=O)(=O)c3cccs3)CC2)c1 (stereo unspecified) ?
Return: inactive

Enquiry: What call does the record list for Cc1cccc(C)c1-n1ncc(C(=O)NCCCN2CCCCC2)c1C1CCN(C(=O)OC(C)(C)C)CC1 ?
Return: inactive

Enquiry: What call does the record list for COc1ccc(N2CCN(Cc3ccc(Br)s3)CC2)cc1 ?
Return: active

Enquiry: What call does the record list for COc1ccc2c(c1)c(=Cc1ccc(N(C)C)cc1)c1cc(-c3ccccc3)[n+](C)n12 ?
Return: active

Enquiry: What call does the record list for CCOc1ccc(NC(=O)CCc2c(C)nn(-c3ccc(N4CCCC4)nn3)c2C)cc1 ?
Return: inactive

====

- target under test: Chromobox protein homolog 1 (Homo sapiens)
- protocol notes: HTS for Inhibitors of HP1-beta Chromodomain Interactions with Methylated Histone Tails; also: nearly all actives have a fitted effect of over 70% in size
- condition set: AlphaScreen HP1-beta / biotin-H3K9me3 peptide binding; series mostly up to 114 µM
Among all 390,000 compounds or so, about 2,200 (0.56%) were called active. Roughly 3% stayed inconclusive and do not appear here. Calls follow the shape of the dose curve; as a rule, active = well fitted inhibition curve with a large enough effect; inconclusive = small, poorly fitted or top-dose-only effect; inactive = no such curve, though single readings can be large or run the other way. Many of the other results were omitted from the sample, so actives are more common in it than they were.
Result category, one only: active, inactive

Solved entries:
O=C(O)C(c1ccccc1)N1C(=O)/C(=C\c2ccc(-c3cccc(Cl)c3)o2)SC1=S (stereo not drawn) = active
COc1ccc(S(=O)(=O)NCC(c2ccc(N(C)C)cc2)N2CCCC2)cc1 (stereo not drawn) = inactive
COc1ccc(S(=O)(=O)NCC(c2ccc(C)cc2)N2CCN(C)CC2)cc1OC (stereo not drawn) = inactive
CCOc1cccc2c1N[C@@H](c1ccc(C(=O)O)cc1)[C@H]1CC=C[C@@H]21 = active
CCN(CC)Cc1nc2sc(C)c(C)c2c(=O)[nH]1 = inactive
Cc1ccc(Cl)cc1NC(=O)NC1COc2ccccc2C1 (stereo not drawn) = inactive

Enquiry: What call does the record list for COc1ccc(Br)cc1C1C2C=CCC(C)C2C(=O)N1Cc1ccccc1 (stereo not drawn) ?
Return: inactive

Enquiry: What call does the record list for CSc1nnc(SCc2nc3sc(C(=O)O)c(C)c3c(=O)[nH]2)s1 ?
Return: active

Enquiry: What call does the record list for COc1ccc(-c2nnc(SCC(=O)Nc3ccc(C(C)C)cc3)nc2-c2ccc(OC)c(OC)c2)cc1OC ?
Return: inactive

Enquiry: What call does the record list for CCOc1cccc(CC(=O)N2CCc3c([nH]c4ccccc34)C2c2ccc(F)cc2)c1OCC (stereo not drawn) ?
Return: inactive

Enquiry: What call does the record list for Cc1cccc(N2CCN(C(=O)c3ccccc3NC(=O)C3CCCCC3C(=O)O)CC2)c1 (stereo not drawn) ?
Return: inactive

Enquiry: What call does the record list for CCOC(=O)C1Nc2ccc(C(F)(F)F)cc2C2C=CCC12 (stereo not drawn) ?
Return: inactive

Enquiry: What call does the record list for CNC(=O)[C@]1(C(F)(F)F)C[C@H](CCc2ccccc2)CCCO1 ?
Return: inactive

Reference source for all entries: PubChem BioAssay AID540317
